// provenance: patent US9809583B2

Listed here are compounds together with their documented levator ani muscle weight % relative to intact control group.
- System: castrated male rats
- protocolNotes: Efficacy test in castrated male rat (Hershberger assay)
- Type: in vivo, SD (Sprague-Dawley) rat
- measurementSetup: castrated male SD rats, oral once a day for 14 days, 0.1 mg/kg
Express your answer in %, writing the number without its unit.

Answered cases to consult:
{"compoundSmiles": "N#Cc1ccc(OC[C@@H]2CN(c3ccc(C#N)c(C(F)(F)F)c3)[C@@H](C(F)(F)F)O2)cn1", "measuredValue": 43.3}
{"compoundSmiles": "COC(=O)Nc1ccc(OC[C@@H]2CN(c3ccc(C#N)c(C(F)(F)F)c3)[C@@H](C(F)(F)F)O2)cc1", "measuredValue": 18.6}
{"compoundSmiles": "COC(=O)N1CCN(C(=O)[C@@H]2CN(c3ccc(C#N)c(C(F)(F)F)c3)[C@@H](C(F)(F)F)O2)CC1", "measuredValue": 15.0}

Kindly review the next compound as well.
query: Please supply the value of reported levator ani muscle weight % relative to intact control group for the item CC(=O)Nc1ccc(OC[C@@H]2CN(c3ccc(C#N)c(C(F)(F)F)c3)[C@@H](C(F)(F)F)O2)cc1
result: 26.5
